Measured T/C, listed per entry for reference.
- Test system: P388 leukemia ip, CD2F1 mice, survival T/C
- ASSAY NOTES: NCI In Vivo Anticancer Drug Screen. Data for tumor model P388 Leukemia (intraperitoneal) in CD2F1 (CDF1) mice
- CONDITION LABEL: endpoint: median survival time; dose: 200.0 mg/kg/injection; schedule: Q04DX003 (ip); vehicle: saline; higher = longer survival
Toxic doses and inconclusive results are not listed.

Here is how some compounds turned out for T/C.
[[record]]
compound = "O=[N+]([O-])c1ccc2nc3ccccc3cc2c1"
target_under_test = "P388 leukemia ip, CD2F1 mice, survival T/C"
value_type = "T/C"
result = "96 % of control"

[[record]]
compound = "Cn1c2nc(-[n+]3ccccc3)nc-2c([O-])n(C)c1=O"
target_under_test = "P388 leukemia ip, CD2F1 mice, survival T/C"
value_type = "T/C"
result = "100 % of control"


Returns the measured T/C for the input compound. Input: C/C=C/CC(/C(C)=N\[N+](C)(C)C)c1ccccc1 (stereo unspecified)
97 % of control

Returns the measured T/C for the input compound. Input: O=C(O)CCCCCCCCCCC1C=CCC1 (stereo unspecified)
93 % of control

Returns the measured T/C for the input compound. Input: CCOC(=O)c1cn2ccccc2c(C(C)=O)c1=N
100 % of control

Returns the measured T/C for the input compound. Input: O=C(O)CCNCCC(=O)O
100 % of control
